# System: DU-145 cells
# assay-overview: MTT cytotoxicity assay, single drugs and combinations, DU-145 cells
# Format: cell-based
# condition-set: Homo sapiens; DU-145, MTT, 72-hour incubation
attribute-measured: pIC50
# log scale: pIC50 equals minus log10 of the concentration in mol/L

Report pIC50 for COc1ccccc1C1[C@H](C(=O)O)[C@H](c2ccccc2OC)[C@H]1C(=O)OCC1c2ccccc2-c2ccccc21 (stereo partly shown) please.
5.48

Would you mind doing CO[C@H]1C(=O)[C@]2(C)[C@@H](OC)C[C@H]3OC[C@@]3(OC(C)=O)[C@H]2[C@H](OC(=O)c2ccccc2)[C@]2(O)C[C@H](OC(=O)[C@H](O)[C@@H](NC(=O)OC(C)(C)C)c3ccccc3)C(C)=C1C2(C)C [cabazitaxel, reference compound] as well?
9.70

Same thing, different compound: COc1ccccc1C1[C@H](C(=O)O)[C@H](c2ccccc2OC)[C@H]1C(=O)Oc1cccc2ccccc12 (stereo partly shown)
5.05

And what about the compound CC(=O)O[C@@]12CO[C@@H]1C[C@H](O)[C@@]1(C)C(=O)[C@H](O)C3=C(C)[C@@H](OC(=O)[C@H](O)[C@@H](NC(=O)OC(C)(C)C)c4ccccc4)C[C@@](O)([C@@H](OC(=O)c4ccccc4)[C@H]21)C3(C)C [docetaxel, reference compound] ?
9.10

----------
# System: PC3 cells
# assay-overview: MTT cytotoxicity assay, single drugs and combinations, PC3 cells
# Format: cell-based
# condition-set: Homo sapiens, PC-3, 72-hour incubation
Exercise: state measured pIC50 for each of the compounds provided.
pIC50 field: float, defined as -log10 of concentration (mol/L).

pIC50 lookup needed for COc1ccccc1C1[C@H](C(=O)O)[C@H](c2ccccc2OC)[C@H]1C(=O)OCC1c2ccccc2-c2ccccc21 (stereo partly shown) , thanks.
5.20

Next compound up: COc1ccccc1C1[C@H](C(=O)O)[C@H](c2ccccc2OC)[C@H]1C(=O)Oc1cccc2ccccc12 (stereo partly shown)
4.94

Follow-up item: CO[C@H]1C(=O)[C@]2(C)[C@@H](OC)C[C@H]3OC[C@@]3(OC(C)=O)[C@H]2[C@H](OC(=O)c2ccccc2)[C@]2(O)C[C@H](OC(=O)[C@H](O)[C@@H](NC(=O)OC(C)(C)C)c3ccccc3)C(C)=C1C2(C)C [cabazitaxel, reference compound]
8.80

Do the same for CC(=O)O[C@@]12CO[C@@H]1C[C@H](O)[C@@]1(C)C(=O)[C@H](O)C3=C(C)[C@@H](OC(=O)[C@H](O)[C@@H](NC(=O)OC(C)(C)C)c4ccccc4)C[C@@](O)([C@@H](OC(=O)c4ccccc4)[C@H]21)C3(C)C [docetaxel, reference compound] please
8.72

----------
# Test system: 22Rv1 cells
# assay-overview: cells
# condition-set: Homo sapiens, 22Rv1, 72 h, read-out: cytotoxicity IC50
attribute-measured: IC50

Please give the measured IC50 for this compound: COc1ccccc1C1[C@H](C(=O)O)[C@H](c2ccccc2OC)[C@H]1C(=O)Oc1cccc2ccccc12 (stereo partly shown) [SBFI-102]
10100 nM

Try COc1ccccc1C1[C@H](C(=O)O)[C@H](c2ccccc2OC)[C@H]1C(=O)OCC1c2ccccc2-c2ccccc21 (stereo partly shown) [SBFI-103] next.
3100 nM

Also check CC(=O)O[C@@]12CO[C@@H]1C[C@H](O)[C@@]1(C)C(=O)[C@H](O)C3=C(C)[C@@H](OC(=O)[C@H](O)[C@@H](NC(=O)OC(C)(C)C)c4ccccc4)C[C@@](O)([C@@H](OC(=O)c4ccccc4)[C@H]21)C3(C)C [docetaxel, reference compound]
0.3 nM

Same thing, different compound: CO[C@H]1C(=O)[C@]2(C)[C@@H](OC)C[C@H]3OC[C@@]3(OC(C)=O)[C@H]2[C@H](OC(=O)c2ccccc2)[C@]2(O)C[C@H](OC(=O)[C@H](O)[C@@H](NC(=O)OC(C)(C)C)c3ccccc3)C(C)=C1C2(C)C [cabazitaxel, reference compound]
0.3 nM

----------
# assay-overview: MTT cytotoxicity assay, WI-38 cells (normal lung cell-line)
# Type: cell-based
# condition-set: human, WI-38, MTT, 72-hour incubation
Assignment: determine reported IC50 at 72 h for the given molecules.
The reply should consist of the numeric value with the unit placed after it.

// lookup IC50 at 72 h for COc1ccccc1C1[C@H](C(=O)O)[C@H](c2ccccc2OC)[C@H]1C(=O)OCC1c2ccccc2-c2ccccc21 (some centres unmarked)
29.6 µM

Input COc1ccccc1C1[C@H](C(=O)O)[C@H](c2ccccc2OC)[C@H]1C(=O)Oc1cccc2ccccc12 (some centres unmarked)
29.4 µM

----------
# assay-overview: MTT cytotoxicity assay, RWPE-1 cells (normal prostate cell-line)
# Format: cell-based
# condition-set: human, RWPE-1, MTT, 72-hour incubation
attribute-measured: IC50 at 72 h (µM)
Write the value in µM as a bare number.

Record request: IC50 at 72 h value, item COc1ccccc1C1[C@H](C(=O)O)[C@H](c2ccccc2OC)[C@H]1C(=O)OCC1c2ccccc2-c2ccccc21 (some centres unmarked) [SBFI-103]
20.6

Next record, please: COc1ccccc1C1[C@H](C(=O)O)[C@H](c2ccccc2OC)[C@H]1C(=O)Oc1cccc2ccccc12 (some centres unmarked) [SBFI-102]
26
